Tested on: P. falciparum stage V gametocytes
Parameters: BacTiter-Glo ATP luminescence viability of purified stage V gametocytes in 384-well plates, per cent inhibition versus DMSO
Settings: 48 h, 5 µM; inhibitor
The campaign covered roughly 13,000 compounds. About 3,200 (25%) showed an effect of 50% or more. The list shows a part of the results.
Measured property: % Inhibition (%)
Give bare numbers, in %.

Compound | % Inhibition / %
COc1cc2ccccc2cc1CNCCCCCCNCc1cc2ccccc2cc1OC | 4.122
CCC(=O)Nc1cc(=O)[nH]c2nc(-c3ccc(Cl)cc3)nn12 | -75.71
CCOc1cc2ccccc2cc1CNCCCCCCNCc1cc2ccccc2cc1OCC | 69.35
COc1ccc2c(c1)S(=O)(=O)N=C(N1CCCC1c1ccc(Cl)c(Cl)c1)N2C (stereo not shown) | 3.235
Cc1cccc2nc(-c3ccc(-c4ccc(CNCCCNS(C)(=O)=O)cc4)s3)[nH]c12.O=C(O)C(F)(F)F | 13.51
COc1cc(NC2=NS(=O)(=O)c3cc(Cl)ccc3N2C)cc(OC)c1OC | 87.41
COc1cc2nc(N3CCC(CNC(=O)c4ccc(-c5ccc(C(=O)N(C)C)cc5OCCO)cc4)CC3)nc(N)c2cc1OC | -18.75
CCN(C1CCCCC1)S(=O)(=O)c1ccc(OC)c(N2CCN(C(=O)C(Cl)(Cl)Cl)CC2)c1 | 82.34

For every listed record, write down its % Inhibition.
1. CC(C)(C)c1ccc(-c2nnc(N)nc2N)cc1
2. CCC1CCCCN1S(=O)(=O)c1ccc(OC)c(N2CCN(C(=O)C(Cl)(Cl)Cl)CC2)c1 (stereo not shown)
3. O=C(NCc1cccc(OC(F)(F)F)c1)c1cnc2c(c1)nc(-c1cnc(-c3ccccc3)[nH]1)n2CCc1cnc[nH]1
4. COc1cc2nc(N3CCC(CNC(=O)c4ccc(-c5ccc(C(=O)N(C)C)cc5O)cc4)CC3)nc(N)c2cc1OC
5. CN1CCN(c2ccnc3ccc(NC(=O)Nc4ccc5ccccc5c4)cc23)CC1

Reply:
-12.55
3.13
-64.98
72.56
-1.403

For every listed record, write down its % Inhibition.
1. COc1ccc(S(=O)(=O)N2CCCc3ccc(Br)cc32)cc1N1CCN(C(=O)C(Cl)(Cl)Cl)CC1
2. CCOc1c(C)cc(C(F)(F)F)cc1CNCCCNc1cc(=O)c2ccccc2[nH]1
3. CCOc1cc(CNCCCCCCNCc2cc(OCC)c(OCC)c3ccccc23)c2ccccc2c1OCC

Reply:
1. 22.46
2. -34.36
3. 106
